Below is a list of entries, each paired with its recorded shrunken log2 fold change value.
- System: Escherichia coli TOP10
- Procedure text: shrunken log2 fold change of peptide-encoding DNA abundance (4.5 h post-induction vs induction); higher = less antimicrobial activity (less host growth inhibition)
- Measurement setup: time post-induction: 4.5 h; library: site-saturation at positions 5, 18, 19, 20
Form: value (number only, do not type unit).

Completed entries (count: 2):
1. RRIRDRPPRLPRPRPRPQRTPRP : 0.0905
2. RRIRMRPPRLPRPRPRPIFQPRP : -0.115

Problem: Query for Escherichia coli TOP10: what shrunken log2 fold change does the record show for RRIRCRPPRLPRPRPRPTNEPRP ?
Result: -0.213

Problem: Another sequence to check: RRIRMRPPRLPRPRPRPYPFPRP
Result: -0.0613

Problem: Another sequence to check: RRIRVRPPRLPRPRPRPVWFPRP
Result: -0.0288

Problem: Another sequence to check: RRIRFRPPRLPRPRPRPMCDPRP
Result: 0.226

Problem: Another sequence to check: RRIRHRPPRLPRPRPRPNKYPRP
Result: -0.782

Problem: Another sequence to check: RRIRCRPPRLPRPRPRPWHSPRP
Result: 0.112

----------
- System: Escherichia coli TOP10
- Procedure text: shrunken log2 fold change of peptide-encoding DNA abundance (4.5 h post-induction vs induction); higher = less antimicrobial activity (less host growth inhibition)
- Measurement setup: time post-induction: 4.5 h; library: site-saturation at positions 5, 18, 19, 20
Assay endpoint: shrunken log2 fold change
Form: value (number only, do not type unit).

1) RRIRPRPPRLPRPRPRPFDAPRP : 0.0141
2) RRIRIRPPRLPRPRPRPPLLPRP : 0.444
3) RRIRVRPPRLPRPRPRPPRIPRP : 0.116
4) RRIRPRPPRLPRPRPRPVGMPRP : -0.0812

Problem: What value of measured shrunken log2 fold change is listed for RRIRARPPRLPRPRPRPIVGPRP ?
Result: -0.0201

Problem: Another sequence to check: RRIRIRPPRLPRPRPRPYLGPRP
Result: -0.279

----------
- System: Escherichia coli TOP10
- Procedure text: shrunken log2 fold change of peptide-encoding DNA abundance (4.5 h post-induction vs induction); higher = less antimicrobial activity (less host growth inhibition)
- Measurement setup: time post-induction: 4.5 h; library: site-saturation at positions 5, 18, 19, 20
Assay endpoint: shrunken log2 fold change
Form: value (number only, do not type unit).

1) RRIRWRPPRLPRPRPRPRWEPRP : 0.238
2) RRIRGRPPRLPRPRPRPWQCPRP : 0.0158
3) RRIRVRPPRLPRPRPRPIWAPRP : 0.256

Problem: What value of measured shrunken log2 fold change is listed for RRIRERPPRLPRPRPRPREAPRP ?
Result: 0.419

Problem: Another sequence to check: RRIRRRPPRLPRPRPRPKNYPRP
Result: -0.177

----------
- System: Escherichia coli TOP10;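 further: peptides expressed intracellularly from a pBAD plasmid library in pooled LB shake-flask culture, induced with 0.3% L-arabinose, DNA abundance read by NGS, three biological replicates, DESeq2 with apeglm shrinkage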
- Procedure text: shrunken log2 fold change of peptide-encoding DNA abundance (4.5 h post-induction vs induction); higher = less antimicrobial activity (less host growth inhibition)
- Measurement setup: time post-induction: 4.5 h; library: site-saturation at positions 5, 18, 19, 20
Below is a list of entries, each paired with its recorded shrunken log2 fold change value.
Form: value (number only, do not type unit).

Completed entries (count: 10):
1. RRIRVRPPRLPRPRPRPDNYPRP : -0.222
2. RRIRARPPRLPRPRPRPSLRPRP : 0.109
3. RRIRFRPPRLPRPRPRPIVRPRP : -0.0797
4. RRIRTRPPRLPRPRPRPYTHPRP : -0.338
5. RRIRCRPPRLPRPRPRPKPPPRP : 0.931
6. RRIRRRPPRLPRPRPRPMMFPRP : 0.284
7. RRIRGRPPRLPRPRPRPYVSPRP : -0.203
8. RRIRLRPPRLPRPRPRPWLGPRP : 0.181
9. RRIRMRPPRLPRPRPRPNPIPRP : 0.188
10. RRIRDRPPRLPRPRPRPPFSPRP : 0.0121

Problem: What value of measured shrunken log2 fold change is listed for RRIRERPPRLPRPRPRPFKSPRP ?
Result: -0.0568

Problem: Another sequence to check: RRIRLRPPRLPRPRPRPDGEPRP
Result: -0.00819

Problem: Another sequence to check: RRIRYRPPRLPRPRPRPAFSPRP
Result: 0.0115

Problem: Another sequence to check: RRIRPRPPRLPRPRPRPEPCPRP
Result: 0.215

Problem: Another sequence to check: RRIRERPPRLPRPRPRPFQDPRP
Result: 0.0039
